tested system: HiBit-WIZ fusion protein (Homo sapiens, UniProt O95785+Q96SW2)
Sequence (O95785 whole entry, the tested form may be a part): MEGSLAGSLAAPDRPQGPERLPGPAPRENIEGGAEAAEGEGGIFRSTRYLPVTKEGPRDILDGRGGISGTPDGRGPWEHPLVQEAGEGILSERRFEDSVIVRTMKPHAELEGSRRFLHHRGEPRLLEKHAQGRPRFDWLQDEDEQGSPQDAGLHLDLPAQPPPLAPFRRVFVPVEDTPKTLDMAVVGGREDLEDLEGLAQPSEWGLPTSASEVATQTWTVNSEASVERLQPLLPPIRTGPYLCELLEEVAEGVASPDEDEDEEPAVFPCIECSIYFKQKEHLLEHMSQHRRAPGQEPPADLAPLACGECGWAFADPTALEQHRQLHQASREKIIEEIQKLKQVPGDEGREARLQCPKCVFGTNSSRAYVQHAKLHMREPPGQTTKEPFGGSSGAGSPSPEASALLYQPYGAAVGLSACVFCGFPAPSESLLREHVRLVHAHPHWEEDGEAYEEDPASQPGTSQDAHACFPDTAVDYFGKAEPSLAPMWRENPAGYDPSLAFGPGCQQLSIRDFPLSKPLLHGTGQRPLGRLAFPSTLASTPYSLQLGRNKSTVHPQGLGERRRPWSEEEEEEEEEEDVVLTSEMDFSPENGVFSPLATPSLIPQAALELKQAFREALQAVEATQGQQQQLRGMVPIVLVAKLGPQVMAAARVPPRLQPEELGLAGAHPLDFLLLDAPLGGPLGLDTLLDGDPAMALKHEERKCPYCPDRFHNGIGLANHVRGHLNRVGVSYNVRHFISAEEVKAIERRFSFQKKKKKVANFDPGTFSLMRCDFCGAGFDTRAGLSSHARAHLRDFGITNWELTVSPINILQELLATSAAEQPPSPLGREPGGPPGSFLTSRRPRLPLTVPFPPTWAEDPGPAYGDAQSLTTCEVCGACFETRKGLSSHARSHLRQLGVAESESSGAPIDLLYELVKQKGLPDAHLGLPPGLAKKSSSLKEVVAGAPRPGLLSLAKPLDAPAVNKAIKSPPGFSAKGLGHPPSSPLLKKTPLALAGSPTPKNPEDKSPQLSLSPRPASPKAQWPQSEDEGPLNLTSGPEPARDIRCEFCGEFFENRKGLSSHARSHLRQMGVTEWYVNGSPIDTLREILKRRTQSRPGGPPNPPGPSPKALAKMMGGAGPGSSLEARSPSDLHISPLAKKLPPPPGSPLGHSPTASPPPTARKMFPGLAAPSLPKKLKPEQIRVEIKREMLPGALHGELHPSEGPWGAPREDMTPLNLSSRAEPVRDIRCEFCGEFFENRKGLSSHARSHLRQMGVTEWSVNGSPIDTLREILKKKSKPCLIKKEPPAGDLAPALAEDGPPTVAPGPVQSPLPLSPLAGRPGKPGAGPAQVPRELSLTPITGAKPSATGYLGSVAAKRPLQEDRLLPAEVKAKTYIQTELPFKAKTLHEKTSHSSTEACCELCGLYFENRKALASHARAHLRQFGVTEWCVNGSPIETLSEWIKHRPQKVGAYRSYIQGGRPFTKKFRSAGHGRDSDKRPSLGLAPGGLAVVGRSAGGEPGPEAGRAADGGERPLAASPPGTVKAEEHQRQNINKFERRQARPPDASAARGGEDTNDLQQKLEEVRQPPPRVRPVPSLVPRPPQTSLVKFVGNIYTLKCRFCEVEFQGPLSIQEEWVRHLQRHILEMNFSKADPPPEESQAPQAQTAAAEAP
Sequence (Q96SW2 whole entry, the tested form may be a part): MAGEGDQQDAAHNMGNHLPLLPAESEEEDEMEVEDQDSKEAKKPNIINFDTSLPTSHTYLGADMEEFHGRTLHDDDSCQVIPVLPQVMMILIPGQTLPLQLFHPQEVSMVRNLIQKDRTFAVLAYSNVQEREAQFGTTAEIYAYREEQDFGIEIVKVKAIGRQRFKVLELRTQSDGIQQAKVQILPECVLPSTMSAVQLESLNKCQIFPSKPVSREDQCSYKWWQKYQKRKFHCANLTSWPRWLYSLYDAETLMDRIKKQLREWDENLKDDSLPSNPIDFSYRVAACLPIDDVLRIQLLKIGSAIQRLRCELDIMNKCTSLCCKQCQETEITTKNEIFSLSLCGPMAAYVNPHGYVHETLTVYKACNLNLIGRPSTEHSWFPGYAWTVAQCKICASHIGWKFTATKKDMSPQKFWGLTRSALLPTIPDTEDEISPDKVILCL
Sequence (Q16531 whole entry partner, the tested form may be a part): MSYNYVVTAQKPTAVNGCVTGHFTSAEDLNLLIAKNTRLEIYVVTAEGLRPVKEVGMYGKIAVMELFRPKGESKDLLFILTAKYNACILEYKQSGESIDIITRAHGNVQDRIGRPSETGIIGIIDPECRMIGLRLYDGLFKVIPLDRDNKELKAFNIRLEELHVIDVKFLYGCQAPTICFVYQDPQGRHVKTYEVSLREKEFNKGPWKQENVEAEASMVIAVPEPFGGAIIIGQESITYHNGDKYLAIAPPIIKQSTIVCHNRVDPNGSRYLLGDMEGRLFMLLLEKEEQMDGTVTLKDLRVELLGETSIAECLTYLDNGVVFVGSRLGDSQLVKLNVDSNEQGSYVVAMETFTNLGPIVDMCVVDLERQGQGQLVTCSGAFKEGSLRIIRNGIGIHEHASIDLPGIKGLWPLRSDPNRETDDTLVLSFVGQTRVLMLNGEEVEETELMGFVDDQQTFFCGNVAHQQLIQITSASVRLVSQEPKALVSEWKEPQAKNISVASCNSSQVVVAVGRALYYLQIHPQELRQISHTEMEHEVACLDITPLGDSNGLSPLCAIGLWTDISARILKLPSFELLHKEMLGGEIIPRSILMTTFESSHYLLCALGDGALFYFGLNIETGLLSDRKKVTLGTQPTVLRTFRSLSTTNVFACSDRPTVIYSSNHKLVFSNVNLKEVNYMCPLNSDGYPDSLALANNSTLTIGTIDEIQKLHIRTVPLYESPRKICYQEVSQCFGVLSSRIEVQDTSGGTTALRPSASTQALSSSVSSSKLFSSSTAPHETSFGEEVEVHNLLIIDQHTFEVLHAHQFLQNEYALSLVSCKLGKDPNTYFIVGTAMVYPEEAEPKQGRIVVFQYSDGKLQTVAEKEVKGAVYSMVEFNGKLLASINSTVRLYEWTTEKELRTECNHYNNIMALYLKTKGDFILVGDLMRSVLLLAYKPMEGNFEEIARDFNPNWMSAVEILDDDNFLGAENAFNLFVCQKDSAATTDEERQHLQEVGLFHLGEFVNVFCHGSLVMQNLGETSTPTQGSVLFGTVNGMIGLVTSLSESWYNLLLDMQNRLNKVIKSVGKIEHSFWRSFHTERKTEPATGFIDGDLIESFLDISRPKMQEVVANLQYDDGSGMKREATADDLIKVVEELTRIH
assay info: Quantification of WIZ protein levels in HiBit tag fusion protein assay (WIZ HiBit assay in 293T cells)
Type: cell-based
Parameters: dose or concentration left out as unconfirmed
condition label: HEK-293T, 100 minus Amax; 293T cells; read-out: % degradation of WIZ (100-Amax)
measured endpoint: Dmax (%)

Incoming: Using HiBit-WIZ fusion protein (Homo sapiens, UniProt O95785+Q96SW2) as the test system, report measured Dmax of N#Cc1ccccc1CN1CCCC[C@@H]1COc1ccc2c(c1)CN(C1CCC(=O)NC1=O)C2=O (some centres unmarked) [Compound I-50dz] .
Outgoing: 62.8

Incoming: Using HiBit-WIZ fusion protein (Homo sapiens, UniProt O95785+Q96SW2) as the test system, report measured Dmax of COc1cc(CN2CCCC[C@H]2COc2ccc3c(c2)CN(C2CCC(=O)NC2=O)C3=O)ccc1C (some centres unmarked) [Compound I-50s] .
Outgoing: 84.3

Incoming: Using HiBit-WIZ fusion protein (Homo sapiens, UniProt O95785+Q96SW2) as the test system, report measured Dmax of O=C1CCC(N2Cc3cc(OC[C@@H]4CCCCN4C(=O)c4ccc(N5CCOCC5)cc4)ccc3C2=O)C(=O)N1 (some centres unmarked) [Compound I-72an] .
Outgoing: 53.8

Incoming: Using HiBit-WIZ fusion protein (Homo sapiens, UniProt O95785+Q96SW2) as the test system, report measured Dmax of COc1ccccc1C(=O)N1CCC[C@@H]1COc1ccc2c(c1)CN(C1CCC(=O)NC1=O)C2=O (some centres unmarked) .
Outgoing: 16.8

Incoming: Using HiBit-WIZ fusion protein (Homo sapiens, UniProt O95785+Q96SW2) as the test system, report measured Dmax of O=C1CCC(N2Cc3cc(OC[C@H]4CCCCN4Cc4ccc(-n5nccn5)cc4)ccc3C2=O)C(=O)N1 (some centres unmarked) [Compound I-50eg] .
Outgoing: 99.6

P. Cn1ccc2c(CN3CCCC[C@H]3COc3ccc4c(c3)CN(C3CCC(=O)NC3=O)C4=O)cccc21 (some centres unmarked) [Compound I-50t]
Q. N#Cc1ccn2cc(CN3CCCC[C@H]3COc3ccc4c(c3)CN(C3CCC(=O)NC3=O)C4=O)nc2c1 (some centres unmarked) [Compound I-50c]
R. N#Cc1cc(CN2CCCC[C@@H]2COc2ccc3c(c2)CN(C2CCC(=O)NC2=O)C3=O)ccn1 (some centres unmarked) [Compound I-50dn]
S. CCOC(=O)c1n[nH]cc1CN1CCCC[C@@H]1COc1ccc2c(c1)CN(C1CCC(=O)NC1=O)C2=O (some centres unmarked) [Compound I-50ch]
T. COC1CCC(CN2CCCCC2C(C)Oc2ccc3c(c2)CN(C2CCC(=O)NC2=O)C3=O)CC1 (centres unmarked) [Compound I-217]
Incoming: Descending sort on Dmax required. Submit the labels in the order that the ranking request calls for.
Outgoing: P, S, Q, R, T
